# target desc: recombinant F508del V470 CFTR in Fischer rat thyroid (FRT) cells (Homo sapiens, UniProt P13569, DEL508-508)
# Sequence (P13569 with tags, fused parts or gaps DEL508-508): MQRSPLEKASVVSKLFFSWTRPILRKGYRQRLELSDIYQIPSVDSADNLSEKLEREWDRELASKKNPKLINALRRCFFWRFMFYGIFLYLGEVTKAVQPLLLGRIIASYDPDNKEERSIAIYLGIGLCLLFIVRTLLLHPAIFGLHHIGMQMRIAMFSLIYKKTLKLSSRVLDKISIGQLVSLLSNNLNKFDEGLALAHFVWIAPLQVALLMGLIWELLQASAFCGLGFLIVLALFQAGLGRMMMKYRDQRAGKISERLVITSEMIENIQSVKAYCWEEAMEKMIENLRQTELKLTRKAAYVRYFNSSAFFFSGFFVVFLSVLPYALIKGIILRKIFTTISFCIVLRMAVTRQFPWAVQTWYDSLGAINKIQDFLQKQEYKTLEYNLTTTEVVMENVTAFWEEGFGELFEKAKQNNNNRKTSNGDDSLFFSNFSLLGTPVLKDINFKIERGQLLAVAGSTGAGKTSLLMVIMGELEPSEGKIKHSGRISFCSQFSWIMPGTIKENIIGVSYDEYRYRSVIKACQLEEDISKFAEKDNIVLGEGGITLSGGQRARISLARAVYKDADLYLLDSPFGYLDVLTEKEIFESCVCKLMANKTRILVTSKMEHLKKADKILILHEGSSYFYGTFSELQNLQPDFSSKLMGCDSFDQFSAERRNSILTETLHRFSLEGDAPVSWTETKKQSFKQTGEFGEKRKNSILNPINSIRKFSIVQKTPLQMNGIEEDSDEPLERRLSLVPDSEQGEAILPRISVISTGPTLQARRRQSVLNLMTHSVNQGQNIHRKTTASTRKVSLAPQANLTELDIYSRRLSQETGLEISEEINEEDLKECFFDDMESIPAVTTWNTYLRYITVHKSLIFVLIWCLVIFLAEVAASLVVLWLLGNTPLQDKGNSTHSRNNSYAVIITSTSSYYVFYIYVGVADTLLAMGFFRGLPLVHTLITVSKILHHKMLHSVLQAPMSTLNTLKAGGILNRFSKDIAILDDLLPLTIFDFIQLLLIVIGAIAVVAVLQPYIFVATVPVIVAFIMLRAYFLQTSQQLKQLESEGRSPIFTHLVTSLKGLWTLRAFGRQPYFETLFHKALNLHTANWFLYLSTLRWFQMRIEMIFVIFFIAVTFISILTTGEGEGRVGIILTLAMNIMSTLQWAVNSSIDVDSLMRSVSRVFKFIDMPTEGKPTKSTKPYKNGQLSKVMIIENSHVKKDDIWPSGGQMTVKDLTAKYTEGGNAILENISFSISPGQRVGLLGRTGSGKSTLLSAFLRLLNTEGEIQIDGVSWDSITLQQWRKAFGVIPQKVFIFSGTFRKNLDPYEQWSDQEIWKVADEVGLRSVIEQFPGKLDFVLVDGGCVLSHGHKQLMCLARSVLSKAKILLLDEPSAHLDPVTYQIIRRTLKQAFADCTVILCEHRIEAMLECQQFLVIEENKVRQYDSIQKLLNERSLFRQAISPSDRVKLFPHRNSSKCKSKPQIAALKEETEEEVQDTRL
# method notes: FRT ion flux assay of F508del CFTR potentiation
# condition label: FRT cells expressing F508del V470 CFTR, forskolin 20 uM, 27° C. pre-incubation
Reported log10 EC50 values are given for each entry in this list.
Hello, just confirming the data are log10 of EC50 with units of nM.

Supply measured log10 EC50 of CCC(c1cn(-c2ccccc2F)nn1)n1c(C#N)c(-c2cnc(C(F)(F)F)nc2)c2c(N)ncnc21 (single isomer, unassigned) [Example 22] in your reply.
0.61

Supply measured log10 EC50 of CCC(c1cn(-c2ccccc2)nn1)n1cc(-c2cncnc2OC)c2c(N)ncnc21 (centres unmarked) [Example 248] in your reply.
1.41

Supply measured log10 EC50 of CC(c1cn(-c2ncccc2F)nn1)n1cc(-c2ccc(Cl)cc2)c2c(N)ncnc21 (centres unmarked) in your reply.
2.05

Supply measured log10 EC50 of CCC(c1cn(-c2ccc(F)c(F)c2)nn1)n1cc(-c2cnc(OC)c(F)c2)c2c(N)ncnc21 (single isomer, unassigned; enantiomer 2) [Example 158] in your reply.
2.05

Supply measured log10 EC50 of CCC(c1cnn(-c2ccccc2F)c1)n1c(C#N)c(-c2cnc(C(F)(F)F)nc2)c2c(N)ncnc21 (single isomer, unassigned) [Example 3] in your reply.
0.96

Supply measured log10 EC50 of CC(c1cn(-c2ccccc2F)nn1)n1cc(-c2ccccc2)c2c(N)ncnc21 (centres unmarked) in your reply.
2.56

Supply measured log10 EC50 of CCC(c1nnn(-c2ccc(F)cc2F)c1C)n1cc(-c2cnc(C(F)(F)F)nc2)c2c(N)ncnc21 (single isomer, unassigned) [Example 190] in your reply.
2.66
